Target: Caspase-1 (Homo sapiens)
Assay: qHTS Assay for Allosteric/Competitive Inhibitors of Caspase-1;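 further: plate controls were vehicle for no effect and no substrate for full effect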
Conditions: Caspase-1 enzyme, Ac-WEHD-AFC fluorogenic rate; series mostly up to 57.5 µM
The whole screen tested about 75,000 compounds, of which about 20 (0.03%) were called active. Inconclusive results (about 1%) are left out. Not all results are given here.
Reported endpoint: activity change, negative = inhibition

Compound	Assay system	Recorded measurement
CCCN1Cc2cccc(C(=O)NCc3ccccc3)c2C1=O	Caspase-1 (Homo sapiens)	inactive
Brc1cc(Br)c(Oc2cc(Br)c(Br)cc2Br)cc1Br	Caspase-1 (Homo sapiens)	inactive
Nc1ncn(C2OC(CO)C(O)C2O)c(=O)n1 (configuration not stated)	Caspase-1 (Homo sapiens)	inactive
C=C1C(=O)C23C(O)C1CCC2[C@]12COC3(O)C(O)C1C(C)(C)CC[C@H]2O (some centres not stated)	Caspase-1 (Homo sapiens)	inactive
CC1=C(/C=C/C(C)=C/C=C/C(C)=C/C=C/C=C(C)/C=C/C=C(C)/C=C/C2=C(C)CCCC2(C)C)C(C)(C)CCC1	Caspase-1 (Homo sapiens)	inactive

I am curious: what activity change, negative = inhibition value has been reported for CCN1CCCC1CNC(=O)Cn1cnc2ccc(S(=O)(=O)N3CCC(C)CC3)cc2c1=O (configuration not stated) ?
inactive

Form field: reported activity change, negative = inhibition of `CO[C@H]1COC(=O)C/C=C\[C@H](C)COC(=O)[C@@H](OCc2ccccc2)/C=C\[C@@H]1C`
-1.1% [at 11.5 µM] (inactive)

// lookup activity change, negative = inhibition for `CCCNC(=O)OC[C@@H]1O[C@H](c2ccccc2)C=C[C@@H]1Oc1ccc(OC)cc1`
-0.962% [at 11.5 µM] (inactive)

Which activity change, negative = inhibition is listed for Oc1cc(O)c2c(c1)OC(c1ccc(O)c(O)c1)C(O)C2 (configuration not stated) ?
inactive

I have this compound here, `Nc1nc2nc(Cl)[nH]c2c(=O)[nH]1` , and I need its recorded activity change, negative = inhibition.
inactive

Could you share which activity change, negative = inhibition value was measured for `Cn1c(SCC(=O)N2CCOCC2)nnc1-c1ccc(NC(=O)c2ccccc2F)cc1` ?
inactive

// query activity change, negative = inhibition value for entry Cc1cc(C)cc(C#CC2C=CC(Oc3ccc(C4CCCC4)cc3)C(CO)O2)c1 (configuration not stated)
-0.183% [at 11.5 µM] (inactive)

* * *

Target: Caspase-1 (Homo sapiens) (UniProt P29466)
Test: qHTS Assay for Allosteric/Competitive Inhibitors of Caspase-1;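 further: plate controls were vehicle for no effect and no substrate for full effect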
Conditions: Caspase-1 enzyme, Ac-WEHD-AFC fluorogenic rate; series mostly up to 57.5 µM
Out of some 75,000 compounds screened, about 20 (0.03%) were called active. About 1% were inconclusive and are not listed. Not all results are given here.
Reported endpoint: activity change, negative = inhibition

// known answers, use as guide
Compound	Assay system	activity change, negative = inhibition
CCOC(=O)N/N=C1/C[C@@H](O)[C@@H](O)[C@@H]2[C@@H]3C(=O)N(CC)C(=O)[C@H]3CC[C@H]12	Caspase-1 (Homo sapiens) (UniProt P29466)	0.333% [at 11.5 µM] (inactive)
COc1ccc(/C=C/NC(=O)c2ccc(OC)cc2)cc1	Caspase-1 (Homo sapiens) (UniProt P29466)	-1.51% [at 11.5 µM] (inactive)
CCCC[C@@H]1C[C@H]1C(NC(=O)c1ccc(-c2ccccc2)cc1)c1ccc(-c2ccccc2)cc1 (stereo not given in full)	Caspase-1 (Homo sapiens) (UniProt P29466)	inactive
CC1C(O)CC2C(C(=O)O)=CO[C@@H](O[C@H]3OC(CO)C(O)C(O)C3O)C21 (stereo not given in full)	Caspase-1 (Homo sapiens) (UniProt P29466)	inactive
Cc1nnc(N(Cc2ccco2)C(=O)c2ccno2)s1	Caspase-1 (Homo sapiens) (UniProt P29466)	inactive
Cc1cccc2c3c(ccc12)C1=C(C(=O)C3=O)C(C)CO1 (stereo not given)	Caspase-1 (Homo sapiens) (UniProt P29466)	inactive

Query for Caspase-1 (Homo sapiens) (UniProt P29466): what activity change, negative = inhibition does the record show for `Cc1sc2c(c1C)c(=O)n(-c1ccccc1)c1nncn21` ?
inactive

Lab note: need activity change, negative = inhibition for `C/C(CCN1CCc2nc(-c3ccccc3)c(-c3ccccc3)cc2C1)=N\O[C@@H](C)c1cn([C@@H]2COC[C@@H]2O)nn1` on Caspase-1 (Homo sapiens) (UniProt P29466), anyone have it?
-2.17% [at 11.5 µM] (inactive)

API: value(readout=activity change, negative = inhibition, system=Caspase-1 (Homo sapiens) (UniProt P29466)) for record CSc1ccc(Cl)c(C(=O)OCC(=O)N2CC(C)OC(C)C2)c1 (stereo not given)
inactive

// map `O=C(/C(=N\O)n1cncn1)c1ccc(Br)cc1Br` to recorded activity change, negative = inhibition (system: Caspase-1 (Homo sapiens) (UniProt P29466))
inactive
